Reported TGI values for a set of molecules
system: SK-MEL-2 melanoma; test: NCI tumour cell line growth inhibition, 48 h
EXPERIMENTAL_ENDPOINT: TGI

INSERT INTO results (smiles_str, experimental_endpoint, measured_value) VALUES
  ('COc1cc(-c2csc(NC(=O)Nc3cc(Cl)cc(Cl)c3)n2)cc(OC)c1OC', 'TGI', '7.97 µM'),
  ('CC(=O)c1cc(O)c2ccccc2c1O', 'TGI', '38.7 µM'),
  ('O=C(CCCCC(=O)N/N=C\c1ccccc1O)N/N=C\c1ccccc1O', 'TGI', '> 100 µM'),
  ('C=CCn1c(-c2ccc([N+](=O)[O-])cc2)csc1=N', 'TGI', '> 100 µM'),
  ('COc1ccc(C[C@H](N)C(=O)N2C[C@@H](CO)C[C@@H](n3ccc(=O)[nH]c3=O)C2)cc1', 'TGI', '> 100 µM'),
  ('Cc1ccc(N=C2C(=Nc3ccc(C)cc3)N(c3ccc(C)cc3)C(=S)N2C(=O)c2ccccc2)cc1', 'TGI', '> 100 µM'),
  ('Cc1ccc(CCC(=O)C(=O)O)s1', 'TGI', '> 100 µM'),
  ('N#CC(C#N)=C1C(=O)NC(N)=C1C#N', 'TGI', '> 100 µM'),
  ('Oc1ccc(Cc2cc(Cl)cc(Cl)c2O)cc1Cl', 'TGI', '29.7 µM'),
  ('COC(=O)c1c(O)ccc2c1c1c(n2Cc2ccccc2)C(=O)c2ccccc2C1', 'TGI', '> 100 µM'),
  ('O=C1CSc2cc([N+](=O)[O-])ccc2N1', 'TGI', '> 100 µM');

----------
test system: MOLT-4 leukemia; assay: NCI tumour cell line growth inhibition, 48 h
EXPERIMENTAL_ENDPOINT: TGI

INSERT INTO measurements (compound, measured_value) VALUES
  ('Cc1ccc(Sc2cc3c(oc2=O)-c2ccccc2OC3O)cc1 (centres undefined)', '34.2 µM'),
  ('COc1cccc2c1n([O-])c1cccc(OC)c1[n+]2=O', '> 100 µM'),
  ('CCOC(=O)C(NC(=O)OC(C)(C)C)C(=O)OCC', '> 100 µM'),
  ('Cc1cccc(Cc2cnc(NC(=O)CCc3ccc(C)o3)s2)c1', '> 100 µM'),
  ('O=C1C(=Cc2ccc(Cl)c(Cl)c2)C([O-])=C([P+](c2ccccc2)(c2ccccc2)c2ccccc2)C([O-])=C1[P+](c1ccccc1)(c1ccccc1)c1ccccc1', '3.84 µM'),
  ('CC(=O)N/C(=C\c1ccc(Cc2nc3c([nH]2)C(=O)c2ccccc2C3=O)cc1)c1nc2c([nH]1)C(=O)c1ccccc1C2=O', '> 100 µM'),
  ('OC(CC(O)(C(F)(F)F)C(F)(F)F)c1ccc(C(O)CC(O)(C(F)(F)F)C(F)(F)F)cc1 (centres undefined)', '35.8 µM'),
  ('COc1ccc2c(c1)OC[C@@H]1c3cc(O)c(OCc4ccccc4)cc3O[C@H]21', '> 100 µM'),
  ('O=C(O)Cn1cc([N+](=O)[O-])c(=O)c2ccccc21', '> 100 µM');

----------
system: EKVX NSCLC; test: NCI tumour cell line growth inhibition, 48 h
Each entry gets -1 if its TGI stays under 20 µM, and 1 if its TGI is 20 µM or above.

INSERT INTO results (molecule, cat) VALUES
  ('S=c1[nH]c2ccc(I)cc2c(=S)n1Cc1ccccc1', 1),
  ('C=CC(COC(c1ccccc1)(c1ccccc1)c1ccccc1)N(CC)CC (stereo unspecified)', -1),
  ('Cc1ccc(Sc2cc3c(oc2=O)-c2ccccc2OC3O)cc1 (stereo unspecified)', 1),
  ('Cc1ccc([N+](=O)[O-])c2c(NCC(O)CO)ccnc12 (stereo unspecified)', 1),
  ('c1ccc(CN2CCN3CCN(CC2)CCN(Cc2ccccc2)CC3)cc1', 1),
  ('CCCCCn1c(C)cc(/C=C\c2ccc3cc(C)ccc3[n+]2C)c1C', -1),
  ('CC(C)(C)OC(=O)NCC(=O)N1CCN(C(=O)CNC(=O)OC(C)(C)C)CC1', 1),
  ('NC(N)=NCCCC(NC(=O)OCCCCn1ccc(N)nc1=O)C(=O)O (stereo unspecified)', 1),
  ('N#CCC(=O)N1CCCCCCC1', 1),
  ('CCCCCCCCCCCCCCCC1=NC(C)(C)CN1C(C)C', -1);

----------
system: MDA-N
Outcomes: y (active), n (inactive)

INSERT INTO results (molecule, cat) VALUES
  ('Brc1ccc2c(-c3csc(-c4c[nH]c5ccccc45)n3)c[nH]c2c1', 'n'),
  ('Cc1ccc([C@]2(C)CC[C@H](C)/C2=C\Br)c(O)c1', 'n'),
  ('CCN(CC)C(=S)[S][Bi]([S]C(=S)N(CC)CC)[S]C(=S)N(CC)CC', 'n'),
  ('C=C(C(=O)O[C@H]1C(=O)C2=C(C)CCC3C(=C)C(=O)O[C@@H]3C2[C@]1(C)O)C1CC[C@]2(C)CCCC(=C)[C@H]2C1 (some centres undefined)', 'y');

----------
system: HOP-62 NSCLC; experiment: NCI tumour cell line growth inhibition, 48 h
EXPERIMENTAL_ENDPOINT: TGI (µM)

INSERT INTO results (smiles_str, experimental_endpoint, result_units, value_operator, measured_value) VALUES
  ('CC1=NN(c2nc(N)nc(/C=C\c3ccc([N+](=O)[O-])s3)n2)C(C)(C)C1', 'TGI', 'µM', '>', 100),
  ('CCCCCn1c(C)cc(/C=C\c2ccc3cc(C)ccc3[n+]2C)c1C', 'TGI', 'µM', '=', 0.98),
  ('NNC(=O)C(=O)N/N=C(\CCC(=O)Nc1ccc(Cl)cc1)Cc1nc2ccccc2s1', 'TGI', 'µM', '>', 100),
  ('NC(=S)NN=C1CSSC1', 'TGI', 'µM', '=', 12.2),
  ('O=C(O)C(Oc1nc(=S)[nH]c(=S)[nH]1)(c1ccc(Cl)cc1)c1ccc(Cl)cc1', 'TGI', 'µM', '>', 100);

----------
test system: M14 melanoma; assay: NCI tumour cell line growth inhibition, 48 h; in the data active = GI50 below about 0.43 µM; inactive = the rest
Possible outcomes: t for active, f for inactive

INSERT INTO assay_data (compound, cat) VALUES
  ('O=c1oc2c(C(F)(F)F)cccc2cc1-c1csc(Nc2ccc(OCCF)cc2)n1', 't'),
  ('COc1cc2c3c(n(C)c(=O)c2cc1OC)-c1cc2c(cc1/C3=C\CCNCCCN)OCO2', 'f'),
  ('CCN(CC)c1ccc(/C=C/C=C2\NC(=O)NC2=O)cc1', 'f'),
  ('O=C(c1ccccc1)c1c(C(F)(F)F)n([O-])c2ccc(C(F)(F)F)cc2[n+]1=O', 'f'),
  ('CCSc1ccc(C2C(Br)C(=O)N2c2cc(OC)c(OC)c(OC)c2)cc1 (stereo not given)', 't');

----------
test system: HT29 colon; experiment: NCI tumour cell line growth inhibition, 48 h
log10 of TGI by entry:
EXPERIMENTAL_ENDPOINT: log10 of TGI (log10 of the value in µM)

INSERT INTO assay_data (compound, measured_value) VALUES
  ('CC(=O)c1cc(O)c2ccccc2c1O', 1.57),
  ('C/C(=N\NC(=S)N(C)C)c1ccccn1', 1.20),
  ('O=C(c1ccccc1)c1c(C(F)(F)F)n([O-])c2ccc(C(F)(F)F)cc2[n+]1=O', -0.46),
  ('OC(CC(O)(C(F)(F)F)C(F)(F)F)c1ccc(C(O)CC(O)(C(F)(F)F)C(F)(F)F)cc1 (configuration not stated)', 1.40),
  ('O=C1C(Cl)=C(Nc2cccc(O)c2)C(=O)N1Cc1ccc(Cl)cc1Cl', 1.96),
  ('[N-]=[N+]=Nc1c([N+](=O)[O-])c(=O)n2c3c(cccc13)CCC2', 1.56),
  ('NC(=S)NN=C1CSSC1', 0.90),
  ('CN1CCN(C2=CC(=O)c3c(O)ccc(O)c3C2=O)CC1', -0.02),
  ('COc1c(B(O)O)cc(F)cc1-c1nc2ccc3[nH]ncc3c2c2c1CCCC2', 1.32),
  ('c1ccc(CN2CCN3CCN(CC2)CCN(Cc2ccccc2)CC3)cc1', 1.24);

----------
tested on: SNB-19 CNS; test: NCI tumour cell line growth inhibition, 48 h
TGI overview
EXPERIMENTAL_ENDPOINT: TGI (µM)

INSERT INTO results (compound, measured_target, value_operator, measured_value) VALUES
  ('CC(=O)c1cc(O)c2ccccc2c1O', 'SNB-19 CNS', '>', 100),
  ('C/C(=N\NC(=S)N(C)C)c1ccccn1', 'SNB-19 CNS', '=', 16.3),
  ('NC(N)=NCCCC(NC(=O)OCCCCn1ccc(N)nc1=O)C(=O)O (centres undefined)', 'SNB-19 CNS', '>', 100),
  ('O=C(O)/C(=C\c1ccncc1)c1cccc2ccccc12', 'SNB-19 CNS', '>', 100),
  ('Cc1c(Cl)cccc1NC(=O)c1sc2nc3c(cc2c1N)CCCCC3', 'SNB-19 CNS', '>', 50),
  ('O=C(O)c1cc2ccccc2c2c1C(=O)c1ccccc1-2', 'SNB-19 CNS', '>', 100),
  ('C=C(C(=O)O[C@H]1C(=O)C2=C(C)CCC3C(=C)C(=O)O[C@@H]3C2[C@]1(C)O)C1CC[C@]2(C)CCCC(=C)[C@H]2C1 (some centres undefined)', 'SNB-19 CNS', '=', 26.6),
  ('CCOC(=O)/C=C(\C(=O)OCC)n1ccc(=O)[nH]c1=O', 'SNB-19 CNS', '>', 100),
  ('CN(C)CC/C(=N\Nc1ccc(Cl)cc1Cl)c1ccccc1', 'SNB-19 CNS', '=', 30),
  ('Oc1ccc(Cc2cc(Cl)cc(Cl)c2O)cc1Cl', 'SNB-19 CNS', '=', 33.7),
  ('Fc1cc(-c2cc(-c3ccc4c(c3)OCO4)n[nH]2)c(Cl)cc1Cl', 'SNB-19 CNS', '=', 12.9),
  ('O=C(O)CCC(NC(=O)c1ccc(Nc2nc3cc(C(F)(F)F)ccc3nc2C(=O)O)cc1)C(=O)O (centres undefined)', 'SNB-19 CNS', '>', 100),
  ('Cn1cc(C2=C(N3CCOCC3)C(=O)NC2=O)c2ccccc21', 'SNB-19 CNS', '>', 25),
  ('CCN(CC)C(=S)[S][Bi]([S]C(=S)N(CC)CC)[S]C(=S)N(CC)CC', 'SNB-19 CNS', '=', 3.08);

Data provenance: PubChem BioAssay (NCI)
